- assay_procedure: Lipophilicity, log D of compound at pH 7.4
- Assay type: physicochemical
- cond: buffer
parameter_measured: logD
// return a plain number; no unit text

The following compounds have reported results that may help.
CNCc1cc(-c2ccc(F)cc2)n(S(=O)(=O)c2cccnc2)c1 : 1
CNCc1cc(-c2ccccc2)n(S(=O)(=O)c2cccnc2)c1 : 0.7
CNCc1cc(-c2ccccc2)n(S(=O)(=O)c2ccc(OC)nc2)c1 : 1.7

Turning to the following compound.
[Q] Which logD value belongs to CNCc1cc(-c2ccccc2)n(S(=O)(=O)c2ccc(C#N)nc2)c1 ?
[A] 1.4

###

- assay_procedure: Lipophilicity, log D of compound at pH 7.4
- Assay type: physicochemical
- cond: buffer
Counter-ions that a name gives are not always drawn.
We label by threshold. Values of logD strictly beneath 0.8 are label 1. Values of 0.8 and up are label 0.

See these solved cases before continuing.
CNCc1cc(-c2ccccc2Cl)n(S(=O)(=O)c2cccnc2)c1 : label 1
CNCc1cc(-c2ccccc2CO)n(S(=O)(=O)c2cccnc2)c1 : label 1
CNCc1cc(-c2ccccc2)n(S(=O)(=O)c2ccsc2)c1 : label 0

[Q] Strictly below 0.8 in logD? CNCc1cc(-c2ccccc2)n(S(=O)(=O)c2cccs2)c1
[A] label 0

[Q] API: query returns whether the molecule falls strictly under 0.8 in logD. Query: CNCc1cc(-c2ccccc2C#N)n(S(=O)(=O)c2cccnc2)c1
[A] label 1

[Q] Record CNCc1cc(-c2cccc(F)c2)n(S(=O)(=O)c2cccnc2)c1 : is its logD strictly below 0.8?
[A] label 0

[Q] API: query returns whether the molecule falls strictly under 0.8 in logD. Query: CNCc1cc(-c2ccccc2F)n(S(=O)(=O)c2cccnc2)c1 [VONOPRAZAN FUMARATE]
[A] label 1

[Q] Confirm or reject: logD of CNCc1cc(-c2ccccc2)n(S(=O)(=O)c2ccc(C)nc2)c1 lies strictly below 0.8
[A] label 0

[Q] Quick check: logD of CNCc1cc(-c2ccccc2)n(S(=O)(=O)c2ccc(OC)cc2)c1 under 0.8?
[A] label 0

[Q] For CNCc1cc(-c2ccccc2C)n(S(=O)(=O)c2cccnc2)c1 , is the recorded logD below the cut-off of 0.8?
[A] label 0
